Read-out: Matrix Metallopeptidase 1 (MMP1), MMP1 (gene 4312)
Assay Explanation: BSK_BE3C_MMP1: BioMAP Diversity Plus: BE3C Assay for Matrix Metallopeptidase 1 (MMP1) Biomarker Activity (AID 2283024)
Assay Conditions: primary human bronchial epithelial cells; actives raise or lower the signal
Active and inactive are the calls of the source. The calls were made as follows: active = hit-call score of the fitted dose curve at least 0.9, where 1 is the maximum; inactive = score below 0.9.
Respond only with the outcome that fits, drawn from active, inactive

1) FC(F)C(F)(F)COCC1CO1 (stereo not given); inactive
2) CCCCOC(=O)c1ccccc1; inactive

Which outcome was assigned to NNC(=O)c1ccncc1 in this test?
inactive

Could you do the same for CCc1cccc(CC)c1N , please?
inactive

Could you do the same for NC(=O)N1c2ccccc2C=Cc2ccccc21 , please?
inactive

Could you do the same for CCOC(N)=O , please?
inactive

Could you do the same for COS(C)(=O)=O , please?
inactive

Could you do the same for COc1cc(C(C)C)c2c(c1)S(=O)(=O)N(COc1cc(=O)n3cccc(OCCN4CCCCC4)c3n1)C2=O , please?
inactive

Could you do the same for CCN(CC)C(=S)SSC(=S)N(CC)CC , please?
active

Could you do the same for O=S(=O)(O)c1ccc(N=Nc2c(O)ccc3cc(S(=O)(=O)O)ccc23)cc1 , please?
inactive
